Molecular target: CB2 receptor (Homo sapiens)
Construct: expressed in transfected cells
Sequence (P34972 whole entry): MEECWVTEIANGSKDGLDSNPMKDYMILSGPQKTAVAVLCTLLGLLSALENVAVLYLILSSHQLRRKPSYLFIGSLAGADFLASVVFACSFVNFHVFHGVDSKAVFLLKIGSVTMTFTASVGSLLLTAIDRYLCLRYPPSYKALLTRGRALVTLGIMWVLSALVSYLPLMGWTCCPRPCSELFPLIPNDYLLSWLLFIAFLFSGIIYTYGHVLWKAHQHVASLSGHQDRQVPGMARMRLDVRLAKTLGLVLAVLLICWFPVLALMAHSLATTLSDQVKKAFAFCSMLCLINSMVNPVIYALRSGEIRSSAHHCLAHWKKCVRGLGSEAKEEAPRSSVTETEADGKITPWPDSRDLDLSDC
Experiment: Binding assay for CB2 agonists or inverse agonists (SK-N-MC membranes, [3H]-CP-55,940)
Conditions: read-out: CB2 receptor binding percent inhibition, test concentration 1 μM (footnote 1)
measured_endpoint: inhibition at 1 µM (%)

compound: C[C@@H](NC(=O)c1nn(-c2ccc(Cl)cc2Cl)c2c1CCCC/C2=C\c1ccc(F)cc1)c1ccccn1
target_or_system: CB2 receptor (Homo sapiens)
meas_value: 16

compound: CC12CCC(C1)C(C)(C)[C@H]2NC(=O)c1nn(-c2ccc(F)cc2F)c2c1CCCCC2Cc1ccc(F)cc1 (stereo partly shown)
target_or_system: CB2 receptor (Homo sapiens)
meas_value: 71

compound: CC12CCC(C1)C(C)(C)[C@H]2NC(=O)c1nn(-c2ccc(F)cc2F)c2c1CCCCC2Cc1cccc(F)c1 (stereo partly shown)
target_or_system: CB2 receptor (Homo sapiens)
meas_value: 82

compound: Cn1nc(C(=O)N[C@H]2C3(C)CCC(C3)C2(C)C)c2c1C(Cc1ccccc1Cl)CCCC2 (stereo partly shown)
target_or_system: CB2 receptor (Homo sapiens)
meas_value: 84

====

Target: CB1 receptor (Homo sapiens, UniProt P21554)
Construct: expressed in transfected cells
Sequence (P21554 whole entry): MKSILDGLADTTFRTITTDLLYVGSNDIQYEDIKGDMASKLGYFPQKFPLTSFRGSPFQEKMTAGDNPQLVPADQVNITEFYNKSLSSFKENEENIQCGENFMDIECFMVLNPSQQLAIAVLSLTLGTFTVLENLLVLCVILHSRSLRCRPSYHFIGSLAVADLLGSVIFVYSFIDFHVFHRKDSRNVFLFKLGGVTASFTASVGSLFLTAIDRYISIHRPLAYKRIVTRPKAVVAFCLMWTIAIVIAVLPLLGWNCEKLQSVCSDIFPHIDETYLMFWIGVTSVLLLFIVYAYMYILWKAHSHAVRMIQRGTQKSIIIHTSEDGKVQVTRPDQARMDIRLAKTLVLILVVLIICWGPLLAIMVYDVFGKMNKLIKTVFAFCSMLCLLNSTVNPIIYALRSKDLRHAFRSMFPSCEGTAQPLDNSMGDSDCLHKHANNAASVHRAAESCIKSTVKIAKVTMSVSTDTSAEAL
Assay: Binding assay for CB1 agonists or inverse agonists (SK-N-MC membranes, [3H]-CP-55,940)
Conditions: Cannabinoid CB1 Receptor Binding IC50, calculated by linear regression from percent inhibition at various test concentrations
pIC50: −log10 of the molar value.
Measured pIC50 of individual entries
measured_endpoint: pIC50

molecule: C[C@@H](NC(=O)c1nn(-c2ccc(Cl)cc2Cl)c2c1CCCC/C2=C\c1ccc(Cl)cc1)C1CCCCC1 [Cpd 132]
measured_endpoint: pIC50
meas_value: 8.30
//
molecule: NS(=O)(=O)c1ccc(CNC(=O)c2nn(-c3ccc(Cl)cc3Cl)c3c2CCCC/C3=C\c2ccc(Cl)cc2)cc1 [Cpd 135]
measured_endpoint: pIC50
meas_value: 7.30
//
molecule: C[C@H](NC(=O)c1nn(-c2ccc(Cl)cc2Cl)c2c1CCCC/C2=C\c1ccc(Cl)cc1)c1ccccc1 [Cpd 139]
measured_endpoint: pIC50
meas_value: 7.30
//
molecule: O=C(NN1CCCCC1)c1nn(-c2ccc(Cl)cc2Cl)c2c1CCCC/C2=C\c1ccc(F)cc1 [Cpd 150]
measured_endpoint: pIC50
meas_value: 7.00
//
molecule: O=C(NN1CCCCC1)c1nn(-c2ccc(Cl)cc2Cl)c2c1CCCCC2Cc1cccc(F)c1 (centres unmarked) [Cpd 84]
measured_endpoint: pIC50
meas_value: 6.15
//
molecule: O=C(N[C@@H](CO)c1ccccc1)c1n[nH]c2c1CCCC/C2=C\c1ccc(Cl)cc1 [Cpd 234]
measured_endpoint: pIC50
meas_value: 7.70
//
molecule: O=C(NN1CCCCC1)c1n[nH]c2c1CCCC/C2=C\c1ccc(Cl)cc1 [Cpd 144]
measured_endpoint: pIC50
meas_value: 7.52
//
molecule: CC[C@@H](NC(=O)c1nn(-c2ccc(Cl)cc2Cl)c2c1CCCC/C2=C\c1ccc(F)cc1)c1ccccc1 [Cpd 202]
measured_endpoint: pIC50
meas_value: 8.00

====

Molecular target: CB2 receptor (Homo sapiens)
Construct: expressed in transfected cells
Assay: Binding assay for CB2 agonists or inverse agonists (SK-N-MC membranes, [3H]-CP-55,940)
Settings: test concentration 0.2 μM (footnote 2); read-out: CB2 receptor binding percent inhibition
Rule: T for inhibition at 0.2 µM not less than 20%, F for anything less.

compound: O=C(c1n[nH]c2c1CCCC/C2=C\c1ccc(Cl)cc1)N1CCCCC1 [Cpd 223]
class_assignment: T
//
compound: O=C(N[C@H](CO)Cc1ccc(O)cc1)c1n[nH]c2c1CCCC/C2=C\c1cccc(Cl)c1 [Cpd 246]
class_assignment: F
//
compound: C[C@H](NC(=O)c1nn(-c2ccncc2)c2c1CCCC/C2=C\c1ccc(Cl)cc1)c1ccccc1 [Cpd 171]
class_assignment: T
//
compound: CC(C)[C@@H](CO)NC(=O)c1nn(-c2ccc(Cl)cc2Cl)c2c1CCCC[C@H]2Cc1cccc(Cl)c1 [Cpd 159]
class_assignment: F
//
compound: C[C@H](NC(=O)c1nn(-c2ccncc2)c2c1CCCC/C2=C\c1ccc(Cl)cc1)C1CCCCC1 [Cpd 181]
class_assignment: T
//
compound: O=C(NN1CCOCC1)c1nn(-c2ccccc2Cl)c2c1CCCC/C2=C\c1ccc(Cl)cc1 [Cpd 194]
class_assignment: F
//
compound: O=C(NN1CCCCC1)c1nn(-c2ccccc2Cl)c2c1CCCC/C2=C\c1ccc(Cl)cc1 [Cpd 193]
class_assignment: F
//
compound: O=C(N[C@@H](CO)c1ccccc1)c1nn(-c2nccc(C(F)(F)F)n2)c2c1CCCCC2Cc1cccc(Cl)c1 (stereo partly shown) [Cpd 176]
class_assignment: T
//
compound: C[C@@H](NC(=O)c1nn(-c2ccncc2)c2c1CCCC/C2=C\c1ccc(Cl)cc1)C1CCCCC1 [Cpd 180]
class_assignment: T
//
compound: O=C(N[C@@H](CCl)Cc1ccccc1)c1nn(-c2nccc(C(F)(F)F)n2)c2c1CCCCC2Cc1cccc(Cl)c1 (stereo partly shown) [Cpd 187]
class_assignment: T
//
compound: C[C@@H](NS(=O)(=O)C=Cc1n[nH]c2c1CCCCC2Cc1cccc(F)c1)c1ccccc1 (stereo partly shown) [Cpd 235]
class_assignment: T
//
compound: O=C(N[C@H](CCl)c1ccccc1)c1nn(-c2ccc(F)cc2F)c2c1CCCCC2Cc1cccc(F)c1 (stereo partly shown) [Cpd 169]
class_assignment: F
//
compound: C[C@@H](NC(=O)c1nn(C2CCCCC2)c2c1CCCCC2Cc1cccc(F)c1)c1ccccc1 (stereo partly shown) [Cpd 174]
class_assignment: T
//
compound: O=C(Nc1ccccn1)c1nn(-c2ccc(Cl)cc2Cl)c2c1CCCC/C2=C\c1ccc(Cl)cc1 [Cpd 152]
class_assignment: T
//
compound: COc1ccc(/C=C2\CCCCc3c(C(=O)N[C@@H]4CCC[C@H]4O)nn(-c4ccc(Cl)cc4Cl)c32)cc1 [Cpd 221]
class_assignment: T
//
compound: O=C(N[C@H](CO)c1ccccc1)c1nn(-c2ccc(Cl)cc2Cl)c2c1CCCC[C@H]2Cc1cccc(Cl)c1 [Cpd 162]
class_assignment: F
